- Tested on: HCV replicon in Huh7 cells
- experiment.summary: HCV replicon cell-based assay
- Parameters: species or system HCV strain 1B
- test.parameters: Hepatitis C virus, Huh-7; HCV replicon, Huh7 cells; read-out: EC50 range
pEC50: −log10 of the molar value.
Below: a set of entries, each annotated with reported pEC50.

compound	pEC50
C=C[C@@H]1C[C@]1(NC(=O)[C@@H]1C[C@@H](Oc2cc(-c3ccccc3)nc3c(C)noc23)CN1C(=O)[C@@H](NC(=O)OC(C)(C)C)C(C)(C)C)C(=O)NS(=O)(=O)C1CC1	> 7.00
C=CC1C[C@]1(NC(=O)[C@@H]1C[C@@H](Oc2nc(-c3nccs3)c(OC)c3ccccc23)CN1C(=O)[C@@H](NC(=O)OC(C)(C)C)C(C)(C)C)C(=O)NS(=O)(=O)C1CC1 (some centres unmarked)	> 7.00
C=C[C@@H]1C[C@]1(NC(=O)[C@@H]1C[C@@H](Oc2nc(C)cc3ccccc23)CN1C(=O)[C@@H](NC(=O)OC(C)(C)C)C(C)(C)C)C(=O)NS(=O)(=O)C1CC1	> 7.00

Now for another entry.
Input: Return reported pEC50; argument: C=CC1C[C@]1(NC(=O)[C@@H]1C[C@@H](Oc2nc(-c3csc(N(CC)CC)n3)cc3cc(OC)ccc23)CN1C(=O)[C@@H](NC(=O)OC(C)(C)C)C(C)(C)C)C(=O)NS(=O)(=O)C1CC1 (some centres unmarked)
Output: 6.00 to 7.00

----------
Consider the following compounds and their measured pEC50 readings.
- System: HCV replicon in Huh7 cells
- experiment.summary: HCV replicon cell-based assay
- Design: species or system HCV strain 1B
- test.parameters: Hepatitis C virus, Huh-7; HCV replicon, Huh7 cells; read-out: EC50 range
pEC50: −log10 of the molar value.

Some solved cases for reference:
compound	reported.value
C=C[C@@H]1C[C@]1(NC(=O)[C@@H]1C[C@@H](Oc2nc(-c3ccoc3)cc3ccccc23)CN1C(=O)[C@@H](NC(=O)OC(C)(C)C)C(C)(C)C)C(=O)NS(=O)(=O)C1CC1 [Compound 30]	> 7.00
C=C[C@@H]1C[C@]1(NC(=O)[C@@H]1C[C@@H](Oc2nccc3ccccc23)CN1C(=O)[C@@H](NC(=O)Oc1ccc(C)cc1)C(C)(C)C)C(=O)NS(=O)(=O)C1CC1 [Compound 120]	6.00 to 7.00
C=C[C@@H]1C[C@]1(NC(=O)[C@@H]1C[C@@H](Oc2nccc3c(OC)c(OC)ccc23)CN1C(=O)[C@@H](NC(=O)OC(C)(C)C)C(C)(C)C)C(=O)NS(=O)(=O)C1CC1 [Compound 272]	> 7.00

Input: Requested read-out pEC50, target or system HCV replicon in Huh7 cells, entry C=C[C@@H]1C[C@]1(NC(=O)[C@@H]1CC(Oc2nccc3cc(OC)ccc23)CN1C(=O)[C@@H](NC(=O)NC(C)(C)c1ccccc1)C(C)(C)C)C(=O)NS(=O)(=O)C1CC1 (stereo partly shown) [Compound 83]
Output: 6.00 to 7.00

----------
- Tested on: HCV replicon in Huh7 cells
- experiment.summary: HCV replicon cell-based assay
- Design: species or system HCV strain 1B
- test.parameters: Hepatitis C virus, Huh-7; HCV replicon, Huh7 cells; read-out: EC50 range
// values below are reported EC50

molecule	assay.target	reported.value
C=C[C@@H]1C[C@]1(NC(=O)[C@@H]1C[C@@H](Oc2cc(-c3ccccc3)ncn2)CN1C(=O)[C@@H](NC(=O)OC(C)(C)C)C(C)(C)C)C(=O)NS(=O)(=O)C1CC1 [Compound 411]	HCV replicon in Huh7 cells	0.1 to 1 µM
C=C[C@@H]1C[C@]1(NC(=O)[C@@H]1C[C@@H](Oc2ncc(OC)c3ccccc23)CN1C(=O)[C@@H](NC(=O)OC(C)(C)C)C(C)(C)C)C(=O)NS(=O)(=O)C1CC1 [Compound 251]	HCV replicon in Huh7 cells	< 0.1 µM

Input: Quick check: EC50 of C=C[C@@H]1C[C@]1(NC(=O)[C@@H]1C[C@@H](Oc2nccc3c(F)cccc23)CN1C(=O)[C@@H](NC(=O)OC(C)(C)C)C(C)(C)C)C(=O)NS(=O)(=O)C1CC1 [Compound 255] ?
Output: 0.1 to 1 µM
